B1: ZNF193 (parent)
chain: QCIECGKSFNRHCNLIRHQKIHTV

Variants of: B1
Test: protein stability index of a GFP-peptide fusion (GPS, HEK-293T) (PSI 1-6); higher = more stable;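 also: lentivirally expressed fusions sorted by FACS into six bins by GFP to DsRed ratio, PSI derived from sequencing read proportions per bin multiplied by bin number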
Details: c terminus: a fixed tail appended
Field: protein stability index. Provide a value for each of the variants that follow.
Lab note: jot down the number only; don't add units.

Consider the variant shown here: `E4C` What is its recorded protein stability index?
2.54

Consider the variant shown here: `H12K` What is its recorded protein stability index?
3.98

Consider the variant shown here: `N10D` What is its recorded protein stability index?
3.88

Consider the variant shown here: `H12W` What is its recorded protein stability index?
3.19

Consider the variant shown here: `C2Y` What is its recorded protein stability index?
2.03

Consider the variant shown here: `Q19H` What is its recorded protein stability index?
2.72

Consider the variant shown here: `K20Q` What is its recorded protein stability index?
3.5

Consider the variant shown here: `H12L` What is its recorded protein stability index?
4.23

Consider the variant shown here: `I16H` What is its recorded protein stability index?
3.18

Consider the variant shown here: `H18D` What is its recorded protein stability index?
1.97

Consider the variant shown here: `T23N` What is its recorded protein stability index?
4.08

Consider the variant shown here: `Q19Y` What is its recorded protein stability index?
2.59

Consider the variant shown here: `C2E` What is its recorded protein stability index?
2.77

Consider the variant shown here: `H22T` What is its recorded protein stability index?
2.11

Consider the variant shown here: `N10A` What is its recorded protein stability index?
3.54

Consider the variant shown here: `C2R` What is its recorded protein stability index?
1.72

Consider the variant shown here: `N10C` What is its recorded protein stability index?
3

Consider the variant shown here: `K7N` What is its recorded protein stability index?
2.34

Consider the variant shown here: `H12N` What is its recorded protein stability index?
3.52

Consider the variant shown here: `K20N` What is its recorded protein stability index?
2.61

Consider the variant shown here: `Q1A` What is its recorded protein stability index?
3.14

Consider the variant shown here: `H18F` What is its recorded protein stability index?
2.4

Data provenance: the supplement of paper PMC10567573
